The molecules listed here are annotated with their pEC50.
molecular target: human mAChR M1 (Homo sapiens, UniProt P11229); construct: host or cells: CHO-K1; experiment: mAChR M1 cell-based functional assay (calcium mobilization, Fluo-4, FDSS); conditions: CHO-K1 cells stably expressing hM1; positive allosteric modulator activity as increase in the EC20 acetylcholine response
Sequence (P11229 whole entry): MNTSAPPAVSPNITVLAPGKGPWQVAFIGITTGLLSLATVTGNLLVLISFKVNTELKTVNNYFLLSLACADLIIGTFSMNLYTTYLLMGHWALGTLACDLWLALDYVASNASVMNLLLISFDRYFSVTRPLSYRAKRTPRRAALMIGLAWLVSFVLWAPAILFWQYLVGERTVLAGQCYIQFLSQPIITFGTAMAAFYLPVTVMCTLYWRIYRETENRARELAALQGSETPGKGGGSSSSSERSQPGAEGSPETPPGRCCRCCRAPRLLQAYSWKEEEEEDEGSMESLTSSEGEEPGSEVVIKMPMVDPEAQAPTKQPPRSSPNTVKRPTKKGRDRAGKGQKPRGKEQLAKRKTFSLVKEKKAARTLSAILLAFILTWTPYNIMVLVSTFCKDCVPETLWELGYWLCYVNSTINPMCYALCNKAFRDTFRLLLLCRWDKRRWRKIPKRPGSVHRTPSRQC
Quick note: pEC50 means taking -log10 of the concentration in moles per liter.

Problem: Tell me the measured pEC50 of Cn1ccc(-c2ccc(Cc3cc(C(=O)NC4CC(F)C4)nc4sccc34)cc2)n1 (stereo not drawn) [Compound 97] , please.
Result: 6.85

Problem: Consider the molecule Cn1ccc(-c2ccc(Cc3cc(C(=O)NC4CCOC(C)(C)C4)nc4c3ccn4C)cn2)n1 (stereo not drawn) [Compound 146] and give its measured pEC50.
Result: 6.28

Problem: Sample Cn1ccc(-c2ccc(Cc3cc(C(=O)NC4CCOC(C)(C)C4)nc4sccc34)cc2)n1 (stereo not drawn) [Compound 90] — what was its pEC50?
Result: 8.00

Problem: // pEC50 lookup, key: Cn1cc(-c2ccc(Cc3cc(C(=O)N[C@H]4CC[C@@H]4O)nc4c3ccn4C)cn2)cn1 [Compound 50]
Result: 6.42

Problem: Item under review: Cn1ccc(-c2ccc(Cc3cc(C(=O)NC4CC5(COC5)C4)nc4sccc34)cc2)n1 [Compound 96] . Reported pEC50?
Result: 6.55

Problem: Any idea what its pEC50 is? The molecule is Cc1nc(-c2ccc(Cc3cc(C(=O)N[C@H]4CCC[C@@H]4O)nc4c3ccn4C)cc2)co1 [Compound 56]
Result: 6.57

Further cases:
Problem: Find the recorded pEC50 belonging to Cn1ccc2c(Cc3ccc(-c4cscn4)cc3)cc(C(=O)N[C@@H]3CCCOC3)nc21 [Compound 32] and report it.
Result: 6.42

Problem: Look at this molecule and give its reported pEC50. Cn1cc(-c2ccc(Cc3cc(C(=O)N[C@H]4CCOC4)nc4sccc34)cn2)cn1 [Compound 120]
Result: 7.10

Problem: # pEC50 lookup, item O=C(NCC1CCN1)c1cc(Cc2ccc(-n3cccn3)cc2)c2ccsc2n1 (stereo not drawn) [Compound 84]
Result: 5.97

Problem: Would you mind telling me what pEC50 value was observed for COCC(C)NC(=O)c1cc(Cc2ccc(-n3cccn3)cc2)c2ccsc2n1 (stereo not drawn) [Compound 86] ?
Result: 6.16

###

target: human mAChR M1 (Homo sapiens, UniProt P11229); experiment: mAChR M1 cell-based functional assay (calcium mobilization, Fluo-4, FDSS); conditions: CHO-K1 cells stably expressing hM1; positive allosteric modulator activity as increase in the EC20 acetylcholine response
# strict inequality: EC50 < 500 nM yields Condition met, everything else yields Condition not met

Problem: EC50 strictly < 500 nM for this compound? `Cn1ccc(-c2ccc(Cc3cc(C(=O)NC4CC(F)(F)C4)nc4c3ccn4C)cn2)n1`
Result: Condition not met

Problem: Please check: EC50 for `Cn1ccc(-c2ccc(Cc3cc(C(=O)NCC4CCOCC4)nc4c3ccn4C)cc2)n1` , strictly under 500 nM or not?
Result: Condition not met

Problem: Hello, I'm reviewing records and need to know if EC50 of `Cn1ncc2c(Cc3ccc(-c4cscn4)cc3)cc(C(=O)NC3CCOCC3)nc21` is below 500 nM. Could you check?
Result: Condition not met

Problem: Please check: EC50 for CC1CC(NC(=O)c2cc(Cc3ccc(-c4ccn(C)n4)nc3)c3ccn(C)c3n2)CC(C)O1 (centres unmarked) , strictly under 500 nM or not?
Result: Condition not met

Problem: Criterion: EC50 strictly below 500 nM. Is it met by COCC(C)NC(=O)c1cc(Cc2ccc(-c3ccn(C)n3)nc2)c2ccsc2n1 (centres unmarked) ?
Result: Condition met

More entries:
Problem: Hello, I'm reviewing records and need to know if EC50 of `O=C(NC1COC1)c1cc(Cc2ccc(-n3cccn3)cc2)c2ccsc2n1` is below 500 nM. Could you check?
Result: Condition met

Problem: Determine if `Cc1nc(-c2ccc(Cc3cc(C(=O)N[C@H]4CCOC[C@@H]4O)nc4sccc34)cc2)co1` shows EC50 strictly lower than 500 nM.
Result: Condition met

Problem: Say whether its EC50 is strictly beneath 500 nM. Entry: `Cc1nc(-c2ccc(Cc3cc(C(=O)NCC4CCOCC4)nc4sccc34)cc2)co1`
Result: Condition not met

Sourced from patent US10899759B2
